biological target: HLA-B*08:01 (Homo sapiens, UniProt P01889); test: MHC binding assay (UV-ligand exchange, beta2m ELISA); conditions: MHC class I binding score; binding to HLA-B*08:01 ranged by peptide exchange yield (UV-ligand exchange, β2m ELISA)
quantity_kind: Peptide exchange

Worked cases, answers included:
{"substance": "178 (IPRLAVISI; listed as Homo sapiens) [compound 178]", "target_under_test": "HLA-B*08:01 (Homo sapiens, UniProt P01889)", "Peptide exchange": "++ (20% = ++)"}
{"substance": "119 (FQRVSSVSF; listed as Homo sapiens) [compound 119]", "target_under_test": "HLA-B*08:01 (Homo sapiens, UniProt P01889)", "Peptide exchange": "+++ (50% = +++)"}
{"substance": "131 (MSTKTTSI; listed as Homo sapiens) [compound 131]", "target_under_test": "HLA-B*08:01 (Homo sapiens, UniProt P01889)", "Peptide exchange": "++ (20% = ++)"}
{"substance": "85 (QKPRKKKL; listed as Homo sapiens) [compound 85]", "target_under_test": "HLA-B*08:01 (Homo sapiens, UniProt P01889)", "Peptide exchange": "++ (20% = ++)"}
{"substance": "159 (DLRNKIIA; listed as Homo sapiens) [compound 159]", "target_under_test": "HLA-B*08:01 (Homo sapiens, UniProt P01889)", "Peptide exchange": "++ (20% = ++)"}
{"substance": "248 (SEVNKHETAL; listed as Homo sapiens) [compound 248]", "target_under_test": "HLA-B*08:01 (Homo sapiens, UniProt P01889)", "Peptide exchange": "++ (20% = ++)"}

Please give Peptide exchange for each item listed below.
1. 31 (SPRVKWTF; listed as Homo sapiens) [compound 31]
2. 44 (HLTNRVLSL; listed as Homo sapiens) [compound 44]
3. 251 (DAAAFFKSV; listed as Homo sapiens) [compound 251]

["++ (20% = ++)", "+++ (50% = +++)", "++ (20% = ++)"]
